Data provenance: patent US20250163127A1

target: CD28 (human) (UniProt P10747); assay: flow cytometry, Jurkat cells (CD28)
Readout type: MFI at 33.3 nM (MFI)

Example binders with recorded MFI at 33.3 nM:
Binder	MFI at 33.3 nM (MFI)
CD80 variant Q33L/E35D/M47V/L85Q IgV-Fc (Fc fusion) VIHVTKEVKEVATLSCGHNVSVEELAQTRIYWLKDKKMVLTMMSGDVNIWPEYKNRTIFDITNNLSIVILALRPSDEGTYECVVQKYEKDAFKREHLAEVT	268
CD80 variant A26E/Q33L/E35D/M47L IgV-Fc (Fc fusion) VIHVTKEVKEVATLSCGHNVSVEELEQTRIYWLKDKKMVLTMMSGDLNIWPEYKNRTIFDITNNLSIVILALRPSDEGTYECVVLKYEKDAFKREHLAEVT	271
CD80 variant E35D/D46E/M47V/L97Q IgV-Fc (Fc fusion) VIHVTKEVKEVATLSCGHNVSVEELAQTRIYWQKDKKMVLTMMSGEVNIWPEYKNRTIFDITNNLSIVILALRPSDEGTYECVVLKYEKDAFKREHQAEVT	371
CD80 variant Y31S/E35D/M47L/T79L/E88G IgV-Fc (Fc fusion) VIHVTKEVKEVATLSCGHNVSVEELAQTRISWQKDKKMVLTMMSGDLNIWPEYKNRTIFDITNNLSIVILALRPSDEGLYECVVLKYGKDAFKREHLAEVT	278
CD80 variant E35D/M47V/A71G/L85M/L97Q IgV-Fc (Fc fusion) VIHVTKEVKEVATLSCGHNVSVEELAQTRIYWQKDKKMVLTMMSGDVNIWPEYKNRTIFDITNNLSIVILGLRPSDEGTYECVVMKYEKDAFKREHQAEVT	339

[I] CD80 variant A26E/E35D/M43T/M47L/L85Q/R94Q IgV-Fc (Fc fusion) VIHVTKEVKEVATLSCGHNVSVEELEQTRIYWQKDKKMVLTMTSGDLNIWPEYKNRTIFDITNNLSIVILALRPSDEGTYECVVQKYEKDAFKQEHLAEVT
[II] variant CD80 E35D/T41S/M43V/M47I/L70M/A71G (Fc fusion) VIHVTKEVKEVATLSCGHNVSVEELAQTRIYWQKDKKMVLSMVSGDINIWPEYKNRTIFDITNNLSIVIMGLRPSDEGTYECVVLKYEKDAFKREHLAEVT
[III] CD80 variant E35D/M47L/L85Q IgV-Fc (Fc fusion) VIHVTKEVKEVATLSCGHNVSVEELAQTRIYWQKDKKMVLTMMSGDLNIWPEYKNRTIFDITNNLSIVILALRPSDEGTYECVVQKYEKDAFKREHLAEVT
[IV] variant CD80 E35D/L85Q/K93T/E95V/L97Q (Fc fusion) VIHVTKEVKEVATLSCGHNVSVEELAQTRIYWQKDKKMVLTMMSGDMNIWPEYKNRTIFDITNNLSIVILALRPSDEGTYECVVQKYEKDAFTRVHQAEVT
Lookup: Rank the 4 binders: largest MFI at 33.3 nM first, smallest last. Please list the labels in the order you were asked to rank them.
Found: II, III, IV, I
